Recorded Average droplet size values for a group of compounds are listed next.
Experiment: Emulsion droplet size distribution, Coulter LS 230 analyzer
Type: physicochemical
Conditions: paraffin oil-to-water 7:3 v/v, 2 weight %, aged 3-months, 25° C.

{"COMPOUND": "CCCCCCNC(=O)CCCCCCCC=CCCCCCCC(C)OC1OC(CO)C(O)C(O)C1OC1OC(CO)C(O)C(O)C1O (stereo not shown) [Compound 25, SL-Hexyl Amide]", "Average droplet size": "2.2 ± 0.5 μm"}
{"COMPOUND": "CCCCCCOC(=O)CCCCCCCC=CCCCCCCC(C)OC1OC(CO)C(O)C(O)C1OC1OC(CO)C(O)C(O)C1O (stereo not shown) [Compound 16, SL-Hexyl Ester]", "Average droplet size": "1.9 ± 0.1 μm"}
{"COMPOUND": "CCCCCCCCCCCCOS(=O)(=O)[O-].[Na+] [SDS, Sodium dodecyl sulfate, reference compound]", "Average droplet size": "2.0 ± 0.1 μm"}
{"COMPOUND": "CCCCNC(=O)CCCCCCCC=CCCCCCCC(C)OC1OC(CO)C(O)C(O)C1OC1OC(CO)C(O)C(O)C1O (stereo not shown) [Compound 24, SL-Butyl Amide]", "Average droplet size": "3.0 ± 0.4 μm"}

----------
Test: Crude oil clearing/displacement activity
Conditions: Louisiana Crude on sea water, 20 μL of 1 mg/mL solution
Recorded Oil displacement activity (diameter of the clearing zone) values for a group of molecules are listed next.
QUANTITY_KIND: Oil displacement activity (diameter of the clearing zone)

{"MOLECULE": "CCCCCCCCCCCCOS(=O)(=O)[O-].[Na+] [SDS, Sodium dodecyl sulfate, reference compound]", "REPORTED_RESULT": "0.5 ± 0.14 cm"}
{"MOLECULE": "CCOC(=O)CCCCCCCC=CCCCCCCC(C)OC1OC(CO)C(O)C(O)C1OC1OC(CO)C(O)C(O)C1O (stereo not shown)", "REPORTED_RESULT": "6.3 ± 0.9 cm"}
{"MOLECULE": "CCCCOC(=O)CCCCCCCC=CCCCCCCC(C)OC1OC(CO)C(O)C(O)C1OC1OC(CO)C(O)C(O)C1O (stereo not shown)", "REPORTED_RESULT": "8.7 ± 0.35 cm"}
{"MOLECULE": "COC(=O)CCCCCCCC=CCCCCCCC(C)OC1OC(CO)C(O)C(O)C1OC1OC(CO)C(O)C(O)C1O (stereo not shown)", "REPORTED_RESULT": "6.5 ± 0.4 cm"}

----------
Experiment: Emulsion droplet size distribution, Coulter LS 230 analyzer
Assay type: physicochemical
Conditions: paraffin oil-to-water 7:3 v/v, 0.5 weight %, aged 3-months, 25° C.
Given measured Average droplet size, output Condition met if it is greater than or equal to 4 μm and Condition not met if not.

{"COMPOUND": "CCCCCCCCCCCCOS(=O)(=O)[O-].[Na+] [SDS, Sodium dodecyl sulfate, reference compound]", "GROUP": "Condition not met"}
{"COMPOUND": "CCCCOC(=O)CCCCCCCC=CCCCCCCC(C)OC1OC(CO)C(O)C(O)C1OC1OC(CO)C(O)C(O)C1O (centres unmarked) [Compound 8, SL-Butyl Ester]", "GROUP": "Condition not met"}
{"COMPOUND": "CCCCNC(=O)CCCCCCCC=CCCCCCCC(C)OC1OC(CO)C(O)C(O)C1OC1OC(CO)C(O)C(O)C1O (centres unmarked) [Compound 24, SL-Butyl Amide]", "GROUP": "Condition met"}
{"COMPOUND": "CCCCCCOC(=O)CCCCCCCC=CCCCCCCC(C)OC1OC(CO)C(O)C(O)C1OC1OC(CO)C(O)C(O)C1O (centres unmarked) [Compound 16, SL-Hexyl Ester]", "GROUP": "Condition not met"}
